Target: Gamma-aminobutyric acid receptor subunit alpha-1/beta-2/gamma-2 (Rattus norvegicus, UniProt P62813+P63138+P18508)
Sequence (P62813 whole entry): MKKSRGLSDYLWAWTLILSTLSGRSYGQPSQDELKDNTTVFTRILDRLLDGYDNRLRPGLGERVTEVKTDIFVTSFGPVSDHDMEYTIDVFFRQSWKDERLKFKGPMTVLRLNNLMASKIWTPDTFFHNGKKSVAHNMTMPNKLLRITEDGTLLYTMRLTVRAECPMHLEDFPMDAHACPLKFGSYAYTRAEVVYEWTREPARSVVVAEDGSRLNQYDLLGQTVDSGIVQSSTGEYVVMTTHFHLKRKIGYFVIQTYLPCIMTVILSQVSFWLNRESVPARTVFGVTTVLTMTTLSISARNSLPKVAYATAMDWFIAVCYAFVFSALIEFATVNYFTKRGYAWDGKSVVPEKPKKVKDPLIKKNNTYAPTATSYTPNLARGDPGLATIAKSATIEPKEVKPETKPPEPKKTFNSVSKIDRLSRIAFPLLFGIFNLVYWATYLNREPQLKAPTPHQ
Sequence (P63138 whole entry): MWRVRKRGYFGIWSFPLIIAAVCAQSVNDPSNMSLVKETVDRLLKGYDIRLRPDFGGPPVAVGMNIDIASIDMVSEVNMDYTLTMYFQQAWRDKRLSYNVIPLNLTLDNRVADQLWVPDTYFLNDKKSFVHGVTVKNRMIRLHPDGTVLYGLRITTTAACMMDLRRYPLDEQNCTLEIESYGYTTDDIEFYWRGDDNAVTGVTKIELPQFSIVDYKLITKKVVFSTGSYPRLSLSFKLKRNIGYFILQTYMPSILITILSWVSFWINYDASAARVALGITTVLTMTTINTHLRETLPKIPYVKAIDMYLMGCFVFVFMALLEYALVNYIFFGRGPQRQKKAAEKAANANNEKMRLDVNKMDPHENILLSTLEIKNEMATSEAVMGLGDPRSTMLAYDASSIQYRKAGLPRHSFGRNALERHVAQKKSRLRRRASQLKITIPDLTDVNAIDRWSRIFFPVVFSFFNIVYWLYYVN
Sequence (P18508 whole entry): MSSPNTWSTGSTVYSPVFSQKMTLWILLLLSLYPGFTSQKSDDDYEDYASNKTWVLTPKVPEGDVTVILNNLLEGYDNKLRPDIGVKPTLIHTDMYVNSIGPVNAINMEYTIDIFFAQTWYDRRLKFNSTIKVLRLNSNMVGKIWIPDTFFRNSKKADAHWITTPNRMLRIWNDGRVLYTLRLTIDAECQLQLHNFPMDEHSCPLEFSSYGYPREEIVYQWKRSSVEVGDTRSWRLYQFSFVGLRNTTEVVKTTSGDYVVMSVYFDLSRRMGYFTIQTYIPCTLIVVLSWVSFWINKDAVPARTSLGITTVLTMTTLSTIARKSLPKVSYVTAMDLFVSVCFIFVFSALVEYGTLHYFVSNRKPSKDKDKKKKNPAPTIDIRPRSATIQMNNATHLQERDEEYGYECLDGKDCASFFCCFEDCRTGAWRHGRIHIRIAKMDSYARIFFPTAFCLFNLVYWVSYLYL
Assay: Binding affinity for recombinant rat GABA-A receptor alpha-1-beta-2-gamma-2 subunits expressed in HEK293 cells
readout_name: Ki (nM)
Numeric answer only, unit nM assumed.

O=c1c(-c2ccsc2)cnc2c(-c3cccc(C(F)(F)F)c3)c[nH]n12
10

Now look at this entry.
Data request: What does the record list as Ki for O=c1c(-c2ccsc2)cnc2c(-c3cccc(Br)c3)c[nH]n12 ?
Data returned: 10
